# test-method-notes: Cytotoxicity assay in mammalian cells (MTT), macrophages, 48 h
# Assay type: cell-based
# condition-details: mouse, J774 A1 macrophages, pH 7.2; 50 % inhibition of macrophages growth, 48 h, MTT
# Protocol: The antiproliferative activity was determined in promastigote forms of Leishmania amazonensis (WHOM/BR/75/JOSEFA strain) and epimastigote forms of Trypanosoma cruzi (Y strain). The promastigote forms of L. amazonensis were cultured in Warren medium (brain heart infusion, hemin, and folic acid; pH 7.4) supplemented with 10 % fetal bovine serum (FBS) at 25 °C. […] Cytotoxicity in mammalian cells was determined in fibroblast line (L929) and macrophages (J774 A1). […]
value-type: CC50 at 48 h (µM)
Record the value in µM, omitting the unit from your answer.

Worked cases, answers included:
COc1ccc(NCc2c(C(=O)N/N=C/c3ccc(-c4cccs4)s3)noc2-c2ccc(Cl)cc2)cc1; 309
O=C(N/N=C/c1ccc(-c2cccs2)s1)c1noc(-c2ccc(Cl)cc2)c1CNc1ccc(Cl)cc1; 300
O=C(N/N=C/c1ccccn1)c1noc(-c2ccccc2)c1CNc1ccccc1; 303

Next molecule, CC50 at 48 h to be filled in.
Task item: Fill blank: measured CC50 at 48 h of the molecule COc1ccc(NCc2c(C(=O)N/N=C/c3ccccc3)noc2-c2ccc(F)cc2)cc1 is ____.
Reply: 300

----------
# System: promastigote forms of Leishmania amazonensis (WHOM/BR/75/JOSEFA strain)
# test-method-notes: Antiproliferative assay (XTT), promastigote forms, 72 h
# Type: cell-based
# condition-details: fibroblast vs promastigote
value-type: SIL-F, selectivity index (Fibroblast CC50/L. amazonensis IC50)

Worked cases, answers included:
COc1ccc(NCc2c(C(=O)N/N=C/c3ccccn3)noc2-c2ccc(Cl)cc2)cc1; 6.17
O=C(N/N=C/c1ccccc1)c1noc(-c2ccc(Cl)cc2)c1CNc1ccc(Cl)cc1; 6.00

Next compound, SIL-F, selectivity index (Fibroblast CC50/L. amazonensis IC50) to be filled in.
Task item: Fill blank: measured SIL-F, selectivity index (Fibroblast CC50/L. amazonensis IC50) of the compound O=C(N/N=C/c1ccccc1)c1noc(-c2ccc(F)cc2)c1CNc1ccccc1 is ____.
Reply: 6.04
